These measurements were taken from patent US10087188B2.

The compounds listed here are annotated with their log10(IC50).
- targetEntity: BTK enzyme (recombinant full-length BTK, hBTK) (Homo sapiens (Human))
- Sequence (Q06187 whole entry): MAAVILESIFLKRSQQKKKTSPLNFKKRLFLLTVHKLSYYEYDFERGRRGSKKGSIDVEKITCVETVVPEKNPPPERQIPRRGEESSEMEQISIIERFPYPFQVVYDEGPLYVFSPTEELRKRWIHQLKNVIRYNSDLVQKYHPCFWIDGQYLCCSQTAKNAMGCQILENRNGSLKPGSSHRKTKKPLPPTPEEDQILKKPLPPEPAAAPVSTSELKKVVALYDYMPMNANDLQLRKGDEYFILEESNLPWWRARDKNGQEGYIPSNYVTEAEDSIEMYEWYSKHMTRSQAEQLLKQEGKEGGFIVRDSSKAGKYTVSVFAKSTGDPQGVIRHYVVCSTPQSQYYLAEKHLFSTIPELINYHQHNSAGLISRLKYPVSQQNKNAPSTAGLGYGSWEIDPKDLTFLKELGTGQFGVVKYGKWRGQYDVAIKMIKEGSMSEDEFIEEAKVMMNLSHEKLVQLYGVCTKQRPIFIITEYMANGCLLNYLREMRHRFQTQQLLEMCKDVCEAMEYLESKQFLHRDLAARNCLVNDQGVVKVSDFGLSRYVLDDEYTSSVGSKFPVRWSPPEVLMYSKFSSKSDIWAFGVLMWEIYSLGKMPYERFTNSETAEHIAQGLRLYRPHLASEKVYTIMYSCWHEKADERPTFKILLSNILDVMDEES
- measurementNotes: Btk enzyme activity assay, LANCE TR-FRET
- testSettings: 50 pM hBTK, 2 μM biotin-A5-peptide, 25 μM ATP; 60 minute compound & enzyme incubation; read-out: BTK binding IC50
measurementLabel: log10(IC50) (log10 of the value in nM)

[[record]]
compound = "CC(C)[C@@]1(C(=O)O)CC[C@H](c2nc(-c3ccc(C(=O)Nc4cc(C(F)(F)F)ccn4)cc3)c3c(N)ncc(Cl)n23)C1"
quantitativereadout = 0.51

[[record]]
compound = "CC1(C)[C@@H](c2nc(-c3ccc(C(=O)Nc4cc(C(F)(F)F)ccn4)cc3)c3c(N)nccn23)CC[C@@]1(C)C(=O)O"
quantitativereadout = 0.66

[[record]]
compound = "COc1cc(C(=O)Nc2cc(C(F)(F)F)ccn2)cc(F)c1-c1nc([C@@H]2CC[C@](C)(C(=O)O)C2(C)C)n2ccnc(N)c12"
quantitativereadout = -0.59

[[record]]
compound = "CC1(C(=O)O)CCC(C)(c2nc(-c3ccc(C(=O)Nc4cc(C(F)(F)F)ccn4)cc3Cl)c3c(N)nccn23)CC1 (stereo not drawn)"
quantitativereadout = 0.00

[[record]]
compound = "CCOc1cc(C(=O)Nc2cc(C(F)(F)F)ccn2)ccc1-c1nc([C@@H]2C[C@@H]3[C@H](C2)[C@H]3C(=O)O)n2ccnc(N)c12"
quantitativereadout = -0.37

[[record]]
compound = "CC1(C(=O)O)CCC(C)(c2nc(-c3ccc(C(=O)Nc4cc(C(F)(F)F)ccn4)cc3F)c3c(N)nccn23)CC1 (stereo not drawn)"
quantitativereadout = -0.30


---

- System: HeLa cells
- measurementNotes: [3H] Adenosine uptake assay
- Format: cell-based
- testSettings: Homo sapiens, HeLa, accumulation of tritiated adenosine into HeLa cells; compound concentration range 10 μM to 0.032 nM; read-out: ADU inhibition IC50 (adenosine uptake inhibition potency)
Known log10 of IC50 of a selection of compounds
measurementLabel: log10 of IC50 (log10 of the value in µM)

[[record]]
compound = "CCOc1cc(C(=O)Nc2cc(C(F)(F)F)ccn2)cc(F)c1-c1nc([C@@]2(C)CC[C@](C)(C(=O)O)C2)n2ccnc(N)c12 [Example 126]"
quantitativereadout = 1.00

[[record]]
compound = "C[C@]1(C(=O)O)CC[C@H](N2CCO[C@@H](c3nc(-c4ccc(C(=O)Nc5cc(C(F)F)ccn5)cc4)c4c(N)ncc(Cl)n34)C2)CC1 [Example 195]"
quantitativereadout = 0.39

[[record]]
compound = "CCOc1cc(C(=O)Nc2cc(C(F)(F)F)ccn2)ccc1-c1nc([C@]2(C)CC[C@@](C)(C(=O)O)C2)n2ccnc(N)c12 [Example 85]"
quantitativereadout = 1.00

[[record]]
compound = "CC1(C(=O)O)CCC(C)(c2nc(-c3ccc(C(=O)Nc4cc(C(F)(F)F)ccn4)cc3Cl)c3c(N)nccn23)CC1 (stereo not shown) [Example 133]"
quantitativereadout = 0.72

[[record]]
compound = "Nc1nccn2c([C@@H]3CCN[C@@H](C(=O)O)C3)nc(-c3ccc(C(=O)Nc4cc(C(F)(F)F)ccn4)cc3)c12 [Example 33]"
quantitativereadout = 0.83

[[record]]
compound = "Nc1nccn2c(-c3ccc(C(=O)O)[nH]3)nc(-c3ccc(C(=O)Nc4cc(C(F)(F)F)ccn4)cc3)c12 [Example 27]"
quantitativereadout = 1.00

[[record]]
compound = "CC1(C)[C@H](c2nc(-c3ccc(C(=O)Nc4cc(C(F)(F)F)ccn4)cc3)c3c(N)nccn23)CC[C@]1(C)C(=O)O [Example 69]"
quantitativereadout = 0.03

[[record]]
compound = "COc1cc(C(=O)Nc2cc(C(F)(F)F)ccn2)ccc1-c1nc(C23C4C5C2C2C3C4C52C(=O)O)n2ccnc(N)c12 (stereo not shown) [Example 75]"
quantitativereadout = -0.13

[[record]]
compound = "Nc1nccn2c([C@H]3CC[C@H](CC(=O)O)C3)nc(-c3ccc(C(=O)Nc4cc(C(F)(F)F)ccn4)cc3)c12 [Example 51]"
quantitativereadout = 0.60

[[record]]
compound = "CC1(C(=O)O)CCC(c2nc(-c3ccc(C(=O)Nc4cc(C(F)(F)F)ccn4)cc3F)c3c(N)ncc(Cl)n23)CC1 (stereo not shown) [Example 163]"
quantitativereadout = 0.83

[[record]]
compound = "Nc1nccn2c([C@H]3CC[C@@H](C(=O)N4CC[C@@H](C(=O)O)C4)C3)nc(-c3ccc(C(=O)Nc4cc(C(F)(F)F)ccn4)cc3)c12 [Example 19]"
quantitativereadout = 0.46

[[record]]
compound = "CCOc1cc(C(=O)Nc2cc(C(F)(F)F)ccn2)ccc1-c1nc([C@@]2(C)CC[C@@](C)(C(=O)O)C2)n2ccnc(N)c12 [Example 86]"
quantitativereadout = 1.00

[[record]]
compound = "COc1cc(C(=O)Nc2cc(C(F)(F)F)ccn2)ccc1-c1nc(C23CCC(C(=O)O)(CC2)CC3)n2ccnc(N)c12 [Example 171]"
quantitativereadout = 0.84


---

Each item that follows carries a reported pIC50.
- Test system: HeLa cells
- measurementNotes: [3H] Adenosine uptake assay
- Type: cell-based
- testSettings: Homo sapiens, HeLa, accumulation of tritiated adenosine into HeLa cells; compound concentration range 10 μM to 0.032 nM; read-out: ADU inhibition IC50 (adenosine uptake inhibition potency)
pIC50: −log10 of the molar value.
measurementLabel: pIC50

[[record]]
compound = "CCOc1cc(C(=O)Nc2cc(C(F)(F)F)ccn2)ccc1-c1nc(C23C4C5C2C2C3C4C52C(=O)O)n2ccnc(N)c12 (stereo not shown)"
measurementlabel = "pIC50"
quantitativereadout = 5.61

[[record]]
compound = "CC(C)(C(=O)O)N1CC(=O)N2C[C@H](c3nc(-c4ccc(C(=O)Nc5cc(C(F)(F)F)ccn5)cc4)c4c(N)nccn34)CC[C@H]2C1"
measurementlabel = "pIC50"
quantitativereadout = 5.38

[[record]]
compound = "CC1(C(=O)O)CCCC(c2nc(-c3ccc(C(=O)Nc4cc(C5CC5)ccn4)cc3)c3c(N)nccn23)C1 (stereo not shown)"
measurementlabel = "pIC50"
quantitativereadout = 5.60

[[record]]
compound = "CC1(C)CC(c2nc(-c3ccc(C(=O)Nc4cc(C(F)(F)F)ccn4)cc3)c3c(N)nccn23)CCC1C(=O)O (stereo not shown)"
measurementlabel = "pIC50"
quantitativereadout = 5.29

[[record]]
compound = "C[C@@]1(C(=O)O)CCCN(c2nc(-c3ccc(C(=O)Nc4cc(C(F)(F)F)ccn4)cc3)c3c(N)nccn23)C1"
measurementlabel = "pIC50"
quantitativereadout = 5.37

[[record]]
compound = "Nc1nccn2c(C34CCC(C(=O)O)(CC3)C4)nc(-c3ccc(C(=O)Nc4cc(C(F)(F)F)ccn4)cc3)c12"
measurementlabel = "pIC50"
quantitativereadout = 5.22

[[record]]
compound = "N#Cc1ccnc(NC(=O)c2ccc(-c3nc(C45C6C7C4C4C5C6C74C(=O)O)n4ccnc(N)c34)c(F)c2)c1 (stereo not shown)"
measurementlabel = "pIC50"
quantitativereadout = 6.18

[[record]]
compound = "C[C@H]1CO[C@@H](c2nc(-c3ccc(C(=O)Nc4cc(C(F)F)ccn4)cc3F)c3c(N)ncc(Cl)n23)CN1[C@H]1CC[C@](C)(C(=O)O)CC1"
measurementlabel = "pIC50"
quantitativereadout = 5.00

[[record]]
compound = "C[C@H]1CO[C@@H](c2nc(-c3ccc(C(=O)Nc4cc(C5CC5)ccn4)cc3F)c3c(N)ncc(Cl)n23)CN1[C@H]1CC[C@](C)(C(=O)O)CC1"
measurementlabel = "pIC50"
quantitativereadout = 5.50

[[record]]
compound = "CCOc1cc(C(=O)Nc2cc(C(F)(F)F)ccn2)ccc1-c1nc([C@@H]2C[C@@H]3[C@H](C2)[C@H]3C(=O)O)n2ccnc(N)c12"
measurementlabel = "pIC50"
quantitativereadout = 5.17

[[record]]
compound = "COc1cc(C(=O)Nc2cc(C(F)(F)F)ccn2)ccc1-c1nc(C2CCC(C)(C(=O)O)CC2)n2c(Cl)cnc(N)c12 (stereo not shown)"
measurementlabel = "pIC50"
quantitativereadout = 5.00

[[record]]
compound = "CCOc1cc(C(=O)Nc2cc(C(F)(F)F)n(C)n2)ccc1-c1nc([C@@H]2CC[C@@](C(=O)O)(C(C)C)C2)n2ccnc(N)c12"
measurementlabel = "pIC50"
quantitativereadout = 5.00

[[record]]
compound = "CN1CC[C@@H](c2nc(-c3ccc(C(=O)Nc4cc(C(F)(F)F)ccn4)cc3)c3c(N)nccn23)C[C@H]1C(=O)O"
measurementlabel = "pIC50"
quantitativereadout = 5.76


---

- Test system: HeLa cells
- measurementNotes: [3H] Adenosine uptake assay
- Type: cell-based
- testSettings: Homo sapiens, HeLa, accumulation of tritiated adenosine into HeLa cells; compound concentration range 10 μM to 0.032 nM; read-out: ADU inhibition IC50 (adenosine uptake inhibition potency)
measurementLabel: IC50 (µM)

[[record]]
molecule = "CCOc1cc(C(=O)Nc2cc(C(F)(F)F)ccn2)ccc1-c1nc([C@@H]2CC[C@H](C(C)C)[C@H](C(=O)O)C2)n2ccnc(N)c12 [Example 98]"
targetentity = "HeLa cells"
unitannotation = "µM"
quantitativereadout = 8.77

[[record]]
molecule = "C[C@@]1(C(=O)O)CCC[C@@](C)(c2nc(-c3ccc(C(=O)Nc4cc(C(F)(F)F)ccn4)cc3)c3c(N)nccn23)C1 [Example 137]"
targetentity = "HeLa cells"
unitannotation = "µM"
quantitativereadout = 3.66

[[record]]
molecule = "Nc1nccn2c([C@@H]3CCCN(C(=O)C4CC4C(=O)O)C3)nc(-c3ccc(C(=O)Nc4cc(C(F)(F)F)ccn4)cc3)c12 (stereo partly drawn) [Example 150]"
targetentity = "HeLa cells"
unitannotation = "µM"
quantitativereadout = 6.65

[[record]]
molecule = "Nc1nccn2c([C@@H]3CC[C@H](C(=O)NC4(C(=O)O)CC4)C3)nc(-c3ccc(C(=O)Nc4cc(C(F)(F)F)ccn4)cc3)c12 [Example 16]"
targetentity = "HeLa cells"
unitannotation = "µM"
quantitativereadout = 4.78

[[record]]
molecule = "C[C@@]1(C(=O)O)CC[C@@](C)(c2nc(-c3ccc(C(=O)Nc4cc(C(F)(F)F)ccn4)cc3F)c3c(N)nccn23)C1 [Example 136]"
targetentity = "HeLa cells"
unitannotation = "µM"
quantitativereadout = 3.43

[[record]]
molecule = "CC1(C)[C@@H](C(=O)O)CC[C@]1(C)c1nc(-c2ccc(C(=O)Nc3cc(C(F)(F)F)ccn3)cc2)c2c(N)nccn12 [Example 147]"
targetentity = "HeLa cells"
unitannotation = "µM"
quantitativereadout = 10

[[record]]
molecule = "CCOc1cc(C(=O)Nc2cc(C3CC3)ccn2)cc(F)c1-c1nc(C2(C)CCC(C)(C(=O)O)CC2)n2ccnc(N)c12 (stereo not drawn) [Example 131]"
targetentity = "HeLa cells"
unitannotation = "µM"
quantitativereadout = 10

[[record]]
molecule = "CC(C)[C@@]1(C(=O)O)CC[C@@H](N2C[C@H](c3nc(-c4ccc(C(=O)Nc5cc(C(F)(F)F)ccn5)cc4F)c4c(N)ncc(Cl)n34)OC[C@@H]2C)C1 [Example 202]"
targetentity = "HeLa cells"
unitannotation = "µM"
quantitativereadout = 4.58

[[record]]
molecule = "C[C@H]1CO[C@@H](c2nc(-c3ccc(C(=O)Nc4cc(C(F)(F)F)ccn4)cc3)c3c(N)nccn23)CN1[C@H]1CC[C@](C)(C(=O)O)CC1 [Example 191]"
targetentity = "HeLa cells"
unitannotation = "µM"
quantitativereadout = 1.19

[[record]]
molecule = "CCOc1cc(C(=O)Nc2cc(C(F)(F)F)ccn2)ccc1-c1nc([C@@H]2CCC[C@@](C(=O)O)(C(C)C)C2)n2ccnc(N)c12 [Example 88]"
targetentity = "HeLa cells"
unitannotation = "µM"
quantitativereadout = 3.69

[[record]]
molecule = "CCOc1cc(C(=O)Nc2cc(C(F)(F)F)ccn2)cc(F)c1-c1nc([C@@H]2CC[C@](C)(C(=O)O)C2(C)C)n2c(F)cnc(N)c12 [Example 118]"
targetentity = "HeLa cells"
unitannotation = "µM"
quantitativereadout = 10

[[record]]
molecule = "Nc1nccn2c(C34CCC(C(=O)O)(CC3)CC4)nc(-c3ccc(C(=O)Nc4cc(C(F)(F)F)ccn4)cc3)c12 [Example 168]"
targetentity = "HeLa cells"
unitannotation = "µM"
quantitativereadout = 0.308

